# System: SK-OV-3
# measurement-protocol: NCI tumour cell line growth inhibition, 48 h
Calls of active or inactive are those of the source. Cut-off read from the data, not from the text of the source: active = GI50 up to about 1.1 µM and inactive = higher.
assay-endpoint: GI50

Query :: Identify the measured GI50 of CCCC(=O)N1CCN(c2ccc3c(c2)OC(C)O3)CC1 (stereo not given) for SK-OV-3.
Result :: > 100 µM (inactive)

Query :: Enter reported GI50 observed with SK-OV-3 for CC1CN=C(N(C)C(=O)Nc2ccc(Cl)cc2)S1 (stereo not given)
Result :: 46 µM (inactive)

Query :: Any idea what GI50 came out for `CCOC(=O)c1c(N2CCCC2)ncn(-c2ccccc2)c1=S` on SK-OV-3?
Result :: > 100 µM (inactive)

Query :: Give recorded GI50 with SK-OV-3 for the following molecule: `O=c1oc2c3ccc4ccccc4c3n(CCN3CCCCC3)c2c2ccccc12`
Result :: 43.1 µM (inactive)

Query :: Which measured GI50 belongs to CCN1C[C@]2(C)CC[C@H](OC)C34C5C[C@@H]6[C@@H](OC)C[C@@](OC)(C5[C@H]6OCc5ccccc5)C(C13)[C@H](OC(C)=O)[C@@H]42 (stereo not given in full) , tested on SK-OV-3?
Result :: > 100 µM (inactive)

----------
# System: Malme-3M
# measurement-protocol: NCI tumour cell line growth inhibition, 48 h
Activity calls are given as the source filed them. Rule as the data show it: active = GI50 up to about 1.1 µM and inactive = higher.
Thanks in advance; please answer with one of these: active, inactive

Query :: Just curious, what result did `OCCCNCc1ccncc1` get here?
Result :: inactive

Query :: Hi, do you know how CC1C(=O)N(C)C2(CO)C(=O)O[C@H](C)C12O (some centres undefined) came out in this test?
Result :: inactive

Query :: I would be grateful if you could indicate the recorded call for COc1cc2c(cc1OC)C(Cl)C(c1ccc(Cl)cc1)=C2Cl (centres undefined) .
Result :: inactive

Query :: Tell me the recorded outcome of this test for O=S(=O)(NC1OCCCC1I)c1ccccc1 (centres undefined) .
Result :: inactive

Query :: Recorded test call requested for Cc1ccc(S(=O)OC2c3ccccc3Cc3ccccc32)cc1 (centres undefined)
Result :: inactive

Query :: What classification did CSCC[C@@H](NC(=O)[C@H](CC(C)C)NC(=O)C(Cc1cnc[nH]1)NC(=O)CNC(=O)[C@@H](NC(=O)[C@H](C)NC(=O)[C@H](Cc1c[nH]c2ccccc12)NC(=O)[C@H](CCC(N)=O)NC(=O)[C@@H](N)CC(N)=O)C(C)C)C(N)=O (some centres undefined) end up with in this test?
Result :: inactive

Query :: GET /call?item= COc1ccc(NC(=O)C2C(=O)N(c3ccc(OC)cc3)C(=O)/C2=N\N)cc1 (centres undefined) returns the recorded outcome of this test.
Result :: inactive

Query :: Record request — test call for `CCOC(=O)c1ccc(/N=C2\SC(=S)N(c3ccc(F)cc3)\C2=N/c2ccc(C(=O)OCC)cc2)cc1`
Result :: inactive

Query :: For this compound, state the assay outcome: `CC(=O)OCCOCNC(=S)N/N=C/c1ccc2ccccc2n1`
Result :: inactive

Query :: Name the outcome recorded for `O=C(CCCN1CCC2(CC1)OC(=O)N(c1ccccc1)C2=O)c1ccccc1` in the assay.
Result :: inactive

Query :: Would you mind telling me which call this test gave `COc1cc2c(c3nc4ccccc4nc13)-c1ccc(SC)c(=O)cc1[C@@H](NC(C)=O)CC2` ?
Result :: active

Query :: Write down the call the test reported for this compound. Item: `COc1ccc(/C=C(\C#N)c2nc(N)nc(N3N=C(C)CC3(C)C)n2)c(O)c1`
Result :: inactive

Query :: // param item: CC1CN=C(Nc2ccccc2)S1 (centres undefined) ; yields the recorded call
Result :: inactive

Query :: Please share the test call associated with `C[n+]1ccn2c3nc4ccccc4nc3c([O-])c(C#N)c21` .
Result :: inactive

Query :: Hi, do you know how `OC(c1cc(C(O)(C(F)(F)F)C(F)(F)F)ncn1)(C(F)(F)F)C(F)(F)F` came out in this test?
Result :: inactive

Query :: For this compound, state the assay outcome: `COC(=O)[C@H](C)NC(=O)C1(CNC(=O)[C@H](C)NC(=O)OC(C)(C)C)Cc2ccccc2-c2ccccc2C1`
Result :: inactive

Query :: Status in this test for CC(=O)Nc1ccc2c3c(cc(O)c2c1)N(C(=O)CCCCCC(=O)N1CC(CCl)c2c1cc(O)c1cc(NC(C)=O)ccc21)CC3CCl (centres undefined) ?
Result :: active

Query :: Give the logged outcome of this assay for the following compound: `Cc1ccc(SCN2CCCCC2)cc1.O=C(Cl)c1ccc([N+](=O)[O-])cc1`
Result :: inactive

Query :: Assay outcome for `O=C(N/N=C\c1ccc([N+](=O)[O-])s1)c1ccncc1` : what was it?
Result :: inactive

Query :: Can you look up the reported call for `COc1ccc2c(c1)c1c(n2CCN2CCOCC2)-c2ccccc2CC1` for me?
Result :: inactive

Query :: Look up the recorded call for CO[C@@H]1C[C@H](OC(N)=O)[C@@H]2C=C[C@@H]3/C=C(C)/C=C/[C@@H](C)[C@H](/C(C)=C/[C@@H](C)NC(C)=O)OC(=O)/C=C/C=C(C)\C=C\[C@]3(C)[C@@H]2C1 [SUPERSTOLIDE B] in this test.
Result :: active

Query :: Record lookup: outcome of this test for `O=c1c2cc(Br)ccc2nc(CCl)n1-c1ccc(O)c([N+](=O)[O-])c1` ?
Result :: inactive

Query :: I would be grateful if you could indicate the recorded call for CC1CC2=C(C1)C(C1(C)C(=O)CC3C(C1=O)C3(C)C)C(C)C2=O (centres undefined) .
Result :: inactive

Query :: How did this test come out for CCN1C[C@]2(C)CC[C@H](OC)C34C5C[C@@H]6[C@@H](OC)C[C@@](OC)(C5[C@H]6OCc5ccccc5)C(C13)[C@H](OC(C)=O)[C@@H]42 (some centres undefined) ?
Result :: inactive

Query :: GET /call?item= `COc1ccc(Nc2nc3ccc(C(F)(F)F)cc3nc2C(=O)O)cc1OC` returns the recorded outcome of this test.
Result :: inactive

Query :: Record lookup: outcome of this test for `Cc1c(C)c2c(c(N)c1C#N)C(=O)N(NC(=S)Nc1ccccc1)C2=O` ?
Result :: inactive

Query :: What was the test verdict on O=C1NC(=O)C2=C1CCC2O (centres undefined) ?
Result :: inactive

Query :: Please state the recorded outcome for this compound: `COC(c1cccc(C(O)(C(F)(F)F)C(F)(F)F)c1)(C(F)(F)F)C(F)(F)F`
Result :: inactive

Query :: Which outcome did this test record for the compound `COc1cc(OC)cc(-c2cc(=O)c3c(OC)c(OC)c(OC)c(OC)c3o2)c1` ?
Result :: inactive

Query :: Record request — test call for CC(=O)N(CN1C(=O)CCC1C(=O)O)c1ccccc1Cl (centres undefined)
Result :: inactive

Query :: Which outcome did this test record for the compound `COc1ccc(Cc2nc3cc(Cl)ccc3o2)cc1` ?
Result :: inactive

Query :: Record lookup: outcome of this test for `O=C1CSC(Cc2nc3ccccc3[nH]2)=N1` ?
Result :: inactive

Query :: Check the results log: what was the call for `CC(=O)Nc1ccccc1S(=O)(=O)c1c(-c2c(C)c(Cl)c(C)c(Cl)c2C)noc1C` ?
Result :: inactive

Query :: For `Cc1ccc(Cc2n[nH]c(=O)[nH]2)cc1` , which call appears in the assay record?
Result :: inactive
